# method_description: chemical genetic growth profiling, strain panel (AID 1159580);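 further: tested at 20 µM; growth read once vehicle control cultures reached saturation at 30 °C; 1 = growth at the plate median or of vehicle wells; lower values mean less growth of the strain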
# test_context: S. cerevisiae deletion strains, growth OD, locus YNL322C, strain KRE1 (second series), hits give low values
Hit rate of the full screen: of about 5,500 compounds, about 2,000 (36%) were called active. Another 18% or so got no clear call; they are omitted. The list shows a part of the results.
normalized growth values for the compounds below.
No unit in the answer, please; the number alone is enough.

Check out these entries, answers already filled in.
- OCCN(CCO)c1nc(N2CCCCC2)c2nc(N(CCO)CCO)nc(N3CCCCC3)c2n1: 0.988
- COc1ccc(C[C@H]2NC[C@H](O)[C@H]2OC(C)=O)cc1: 1.01

Prompt: Identify normalized growth associated with the compound `COc1ccc2cc1Oc1ccc(cc1)C[C@H]1c3c(cc4c(c3Oc3cc5c(cc3OC)CCN(C)[C@@H]5C2)OCO4)CCN1C`
Response: 1

Prompt: Identify normalized growth associated with the compound `C1CCc2nnnn2CC1`
Response: 1.01

Prompt: Identify normalized growth associated with the compound OCC(O)Cc1ccc2c(c1)OCO2 (stereo unspecified)
Response: 1

Prompt: Identify normalized growth associated with the compound `OCc1ccccc1O[C@@H]1O[C@H](CO)[C@@H](O)[C@H](O)[C@H]1O`
Response: 0.997

Prompt: Identify normalized growth associated with the compound `O=C(O)c1cc(=O)c2ccc(Cl)cc2[nH]1`
Response: 1.06

====

# method_description: chemical genetic growth profiling, strain panel (AID 1159580);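 further: tested at 20 µM; growth read once vehicle control cultures reached saturation at 30 °C; 1 = growth at the plate median or of vehicle wells; lower values mean less growth of the strain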
# test_context: S. cerevisiae deletion strains, growth OD, locus YAL021C, strain ccr4, hits give low values
Hit rate of the full screen: of about 5,500 compounds, about 2,000 (36%) were called active. Inconclusive results (about 18%) are left out. The list shows a part of the results.
normalized growth values for the compounds below.
No unit in the answer, please; the number alone is enough.

Prompt: Identify normalized growth associated with the compound `Cc1cc(OC(=O)N2CCCCC2)c(C(C)C)cc1[N+](C)(C)C`
Response: 0.994

Prompt: Identify normalized growth associated with the compound CC(=O)OC1CC23CC24CCC(OC2OCC(O)C(O)C2O)C(C)(C)C4CCC3C2(C)CC3OC4(CC(C)C3C12C)OC(O)C1(C)OC41 (stereo not given)
Response: 0.995

Prompt: Identify normalized growth associated with the compound CC(=O)[C@H]1CCC2C3C[C@H](C)C4=CC(=O)CC[C@]4(C)C3[C@@H](O)C[C@@]21C (stereo not given in full)
Response: 0.988

Prompt: Identify normalized growth associated with the compound `COc1cc(OC)c2c(c1)O[C@H](c1ccc(OC)c(OC)c1)[C@@H](O)C2`
Response: 1.01

Prompt: Identify normalized growth associated with the compound COC1C(O)C(O)C(O)[C@@H](O)C1O (stereo not given in full)
Response: 0.967

====

# method_description: chemical genetic growth profiling, strain panel (AID 1159580);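 further: tested at 20 µM; growth read once vehicle control cultures reached saturation at 30 °C; 1 = growth at the plate median or of vehicle wells; lower values mean less growth of the strain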
# test_context: S. cerevisiae deletion strains, growth OD, locus YMR223W, strain ubp8, hits give low values
Out of some 5,500 compounds screened, about 2,000 (36%) were called active. Inconclusive results (about 18%) are left out. This is one part of the list.
normalized growth values for the compounds below.
No unit in the answer, please; the number alone is enough.

• C=CC1=C(C(=O)O)N2C(=O)[C@@H](NC(=O)/C(=N/O)c3csc(N)n3)[C@H]2SC1 = 0.994
• O=C(/C=C/C=C/c1ccc2c(c1)OCO2)N1CCCCC1 = 0.91
• Cc1ccc(O)cc1 = 1.02

Pending compound:
Prompt: Identify normalized growth associated with the compound `NC(N)=Nc1nc(CSCCC(N)=NS(N)(=O)=O)cs1`
Response: 1.01

Cited source: PubChem BioAssay AID1159580
